target: Histone deacetylase 5 (Homo sapiens, UniProt Q9UQL6)
Sequence (Q9UQL6 whole entry): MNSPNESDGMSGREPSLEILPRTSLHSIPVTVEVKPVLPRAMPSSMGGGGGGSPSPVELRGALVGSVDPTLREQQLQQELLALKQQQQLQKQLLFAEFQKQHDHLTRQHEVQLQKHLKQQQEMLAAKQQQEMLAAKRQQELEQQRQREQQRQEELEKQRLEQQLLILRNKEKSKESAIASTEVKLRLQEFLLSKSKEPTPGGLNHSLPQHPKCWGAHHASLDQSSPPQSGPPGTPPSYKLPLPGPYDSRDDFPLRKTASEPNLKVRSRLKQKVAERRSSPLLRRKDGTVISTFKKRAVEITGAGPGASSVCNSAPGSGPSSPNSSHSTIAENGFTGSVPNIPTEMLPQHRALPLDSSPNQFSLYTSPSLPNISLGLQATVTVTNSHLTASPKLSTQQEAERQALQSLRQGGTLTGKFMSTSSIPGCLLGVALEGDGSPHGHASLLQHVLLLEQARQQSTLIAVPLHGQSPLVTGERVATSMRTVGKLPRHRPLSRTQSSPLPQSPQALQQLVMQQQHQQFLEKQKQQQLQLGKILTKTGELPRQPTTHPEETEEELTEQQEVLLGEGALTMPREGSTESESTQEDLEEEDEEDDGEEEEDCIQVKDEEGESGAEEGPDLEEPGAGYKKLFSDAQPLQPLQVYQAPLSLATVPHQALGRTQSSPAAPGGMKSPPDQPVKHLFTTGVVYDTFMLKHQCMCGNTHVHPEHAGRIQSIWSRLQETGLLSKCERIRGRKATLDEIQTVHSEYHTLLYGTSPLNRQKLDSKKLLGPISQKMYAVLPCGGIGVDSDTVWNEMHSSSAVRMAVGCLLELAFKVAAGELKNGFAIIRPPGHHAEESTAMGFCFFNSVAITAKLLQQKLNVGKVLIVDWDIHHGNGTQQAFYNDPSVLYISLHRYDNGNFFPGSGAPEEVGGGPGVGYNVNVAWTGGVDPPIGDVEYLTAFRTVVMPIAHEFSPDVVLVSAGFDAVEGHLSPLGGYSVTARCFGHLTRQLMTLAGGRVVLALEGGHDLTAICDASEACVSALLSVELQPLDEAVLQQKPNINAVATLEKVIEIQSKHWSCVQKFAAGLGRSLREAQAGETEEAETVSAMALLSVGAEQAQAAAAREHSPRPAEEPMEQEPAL
pIC50: −log10 of the molar value.

{"Chemical string": "Cn1cc(CNCC2CCN(c3ncc(C(=O)NO)cn3)CC2)c2ccccc21", "pIC50": 8.43}

----------
Target: Polyamine deacetylase HDAC10 (Homo sapiens, UniProt Q969S8)
Sequence (Q969S8 whole entry): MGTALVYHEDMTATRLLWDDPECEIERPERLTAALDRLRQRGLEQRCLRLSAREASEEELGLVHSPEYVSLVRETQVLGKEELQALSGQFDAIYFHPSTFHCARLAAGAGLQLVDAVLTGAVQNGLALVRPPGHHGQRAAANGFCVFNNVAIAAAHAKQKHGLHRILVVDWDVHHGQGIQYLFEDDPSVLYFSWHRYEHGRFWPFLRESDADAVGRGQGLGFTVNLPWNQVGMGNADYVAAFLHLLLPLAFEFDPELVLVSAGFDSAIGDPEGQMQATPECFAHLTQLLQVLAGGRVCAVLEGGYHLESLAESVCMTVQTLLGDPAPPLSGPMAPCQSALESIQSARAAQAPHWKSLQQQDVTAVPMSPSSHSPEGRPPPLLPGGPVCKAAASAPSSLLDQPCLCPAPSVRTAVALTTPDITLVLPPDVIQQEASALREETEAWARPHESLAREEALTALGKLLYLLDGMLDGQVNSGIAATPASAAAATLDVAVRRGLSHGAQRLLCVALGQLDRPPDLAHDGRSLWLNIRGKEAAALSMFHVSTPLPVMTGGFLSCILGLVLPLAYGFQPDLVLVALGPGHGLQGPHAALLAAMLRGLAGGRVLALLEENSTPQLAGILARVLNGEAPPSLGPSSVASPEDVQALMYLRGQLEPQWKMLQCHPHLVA
Readout label: IC50 (pM)

{"Chemical string": "Cn1cc(CNCC2CCN(c3ncc(C(=O)NO)cn3)CC2)c2ccccc21", "Unit annotation": "pM", "Meas value": 460}
